# protocol_text: Oral bioavailability in C57 mouse at 20 mg/kg
# Format: ADME, organism-based
# assay_context: in vivo
observed_property: bioavailability (%)

Examples with answers:
[[record]]
molecule_smiles = "Cc1c(-c2ccc(C(F)(F)F)cc2Cl)ccc2nn([C@@H](CC(C)C)c3ccc(C(=O)NCCC(=O)O)cc3)cc12"
observed_property = "bioavailability"
unit_abbreviation = "%"
data_value = 78.6

[[record]]
molecule_smiles = "Cc1cc(C(F)(F)F)ccc1-c1cc2cnn([C@@H](CC(C)C)c3ccc(C(=O)NCCC(=O)O)cc3)c2cc1C"
observed_property = "bioavailability"
unit_abbreviation = "%"
data_value = 70.1


(a) Cc1cc(C(F)(F)F)ccc1-c1cc2cn([C@@H](CC(C)C)c3ccc(C(=O)NCCC(=O)O)cc3)nc2cc1C
(b) Cc1cc2c(cnn2[C@@H](CC(C)C)c2ccc(C(=O)NCCC(=O)O)cc2)cc1-c1ccc(C(F)(F)F)cc1Cl
Lookup: Hey, between a and b which has a smaller measured bioavailability? Give the chosen item's label as your response.
Found: a
(a: 74.4%, b: 121%)

---

# protocol_text: Stability in dog liver microsomes assessed as parent compound remaining at 1 uM incubated for 10 mins
# Format: ADME, Canis lupus familiaris, Microsome
# assay_context: liver microsomes, read-out: Stability
observed_property: remaining at 10 min, 1 µM (%)

Examples with answers:
[[record]]
molecule_smiles = "Cc1cc(C(F)(F)F)ccc1-c1ccc2nn([C@@H](CC(C)C)c3ccc(C(=O)NCCC(=O)O)cc3)cc2c1C"
data_value = 64

[[record]]
molecule_smiles = "Cc1cc(C(F)(F)F)ccc1-c1cc2cn([C@@H](CC(C)C)c3ccc(C(=O)NCCC(=O)O)cc3)nc2cc1C"
data_value = 68

[[record]]
molecule_smiles = "COc1c(-c2ccc(C(F)(F)F)cc2Cl)ccc2c1cnn2[C@@H](CC(C)C)c1ccc(C(=O)NCCC(=O)O)cc1"
data_value = 64

[[record]]
molecule_smiles = "Cc1c(-c2ccc(C(F)(F)F)cc2Cl)ccc2nn([C@@H](CC(C)C)c3ccc(C(=O)NCCC(=O)O)cc3)cc12"
data_value = 75

[[record]]
molecule_smiles = "COc1c(-c2ccc(C(F)(F)F)cc2Cl)ccc2nn([C@@H](CC(C)C)c3ccc(C(=O)NCCC(=O)O)cc3)cc12"
data_value = 76


(A) COc1c(-c2ccc(C(F)(F)F)cc2Cl)ccc2nn([C@H](CC(C)C)c3ccc(C(=O)NCCC(=O)O)cc3)cc12
(B) Cc1c(-c2ccc(C(F)(F)F)cc2Cl)ccc2c1cnn2[C@@H](CC(C)C)c1ccc(C(=O)NCCC(=O)O)cc1
Lookup: When their remaining at 10 min, 1 µM values are compared, which is larger, A or B ? Give the chosen item's label as your response.
Found: A
(A: 79%, B: 31%)

---

# protocol_text: Cmax in dog at 2 mg/kg, iv or 10 mg/kg, po
# Type: ADME, organism-based, Canis lupus familiaris
# assay_context: in vivo
observed_property: Cmax (µM)

Examples with answers:
[[record]]
molecule_smiles = "Cc1cc2c(cnn2[C@@H](CC(C)C)c2ccc(C(=O)NCCC(=O)O)cc2)cc1-c1ccc(C(F)(F)F)cc1Cl"
observed_property = "Cmax"
data_value = 34.1

[[record]]
molecule_smiles = "Cc1cc(C(F)(F)F)ccc1-c1cc2cnn([C@@H](CC(C)C)c3ccc(C(=O)NCCC(=O)O)cc3)c2cc1C"
observed_property = "Cmax"
data_value = 27.7


(a) Cc1c(-c2ccc(C(F)(F)F)cc2Cl)ccc2nn([C@@H](CC(C)C)c3ccc(C(=O)NCCC(=O)O)cc3)cc12
(b) Cc1cc(C(F)(F)F)ccc1-c1cc2cn([C@@H](CC(C)C)c3ccc(C(=O)NCCC(=O)O)cc3)nc2cc1C
Lookup: When their Cmax values are compared, which is larger, a or b ? Give the chosen item's label as your response.
Found: b

---

# target_entity: Glucagon receptor (Homo sapiens, UniProt P47871)
# Sequence (P47871 whole entry): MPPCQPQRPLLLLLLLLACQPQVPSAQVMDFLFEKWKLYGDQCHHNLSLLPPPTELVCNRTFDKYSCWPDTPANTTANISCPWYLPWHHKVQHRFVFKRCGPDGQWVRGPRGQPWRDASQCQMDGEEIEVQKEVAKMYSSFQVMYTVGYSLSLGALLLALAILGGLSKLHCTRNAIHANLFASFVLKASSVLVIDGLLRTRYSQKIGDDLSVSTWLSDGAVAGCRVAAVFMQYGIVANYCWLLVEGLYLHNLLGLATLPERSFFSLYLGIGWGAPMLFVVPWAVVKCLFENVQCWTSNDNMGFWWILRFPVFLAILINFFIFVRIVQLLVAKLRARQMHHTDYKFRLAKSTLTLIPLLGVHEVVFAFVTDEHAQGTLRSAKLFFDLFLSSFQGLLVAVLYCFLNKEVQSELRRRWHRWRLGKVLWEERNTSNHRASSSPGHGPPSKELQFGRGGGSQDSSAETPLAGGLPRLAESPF
# protocol_text: Inhibition of human full length GCGR transfected in HEK293 cells assessed as reduction in glucagon-induced cAMP response by LANCE TR-FRET assay
pKi: −log10 of the molar value.
observed_property: pKi

Examples with answers:
[[record]]
compound = "Cc1c(-c2ccc(C(F)(F)F)cc2Cl)ccc2nn([C@@H](CC(C)C)c3ccc(C(=O)NCCC(=O)O)cc3)cc12"
data_value = 7.64

[[record]]
compound = "CC(C)CC(c1ccc(C(=O)NCCC(=O)O)cc1)n1ncc2cc(-c3ccc(C(F)(F)F)cc3)ccc21 (racemic)"
data_value = 6.90


(P) CC(C)C[C@H](c1ccc(C(=O)NCCC(=O)O)cc1)n1ncc2cc(-c3ccc(C(F)(F)F)cc3)ccc21
(Q) CC(C)C[C@@H](c1ccc(C(=O)NCCC(=O)O)cc1)n1ncc2cc(-c3ccc(C(F)(F)F)cc3)ccc21
Lookup: Hey, between P and Q which has a smaller measured pKi? Give the chosen item's label as your response.
Found: Q

---

# protocol_text: Half life in dog at 2 mg/kg, iv
# Assay type: ADME, organism-based, Canis lupus familiaris
# assay_context: in vivo
observed_property: half-life (h)

[[record]]
molecule_smiles = "Cc1cc2c(cnn2[C@@H](CC(C)C)c2ccc(C(=O)NCCC(=O)O)cc2)cc1-c1ccc(C(F)(F)F)cc1Cl"
observed_property = "half-life"
data_value = 16


(I) Cc1cc(C(F)(F)F)ccc1-c1cc2cnn([C@@H](CC(C)C)c3ccc(C(=O)NCCC(=O)O)cc3)c2cc1C
(II) Cc1cc(C(F)(F)F)ccc1-c1cc2cn([C@@H](CC(C)C)c3ccc(C(=O)NCCC(=O)O)cc3)nc2cc1C
(III) Cc1c(-c2ccc(C(F)(F)F)cc2Cl)ccc2nn([C@@H](CC(C)C)c3ccc(C(=O)NCCC(=O)O)cc3)cc12
Lookup: Falling order of half-life, please. Sort the labels as requested; that list is your answer.
Found: II, I, III

---

# protocol_text: Stability in mouse liver microsomes assessed as parent compound remaining at 1 uM incubated for 10 mins
# Format: ADME, Microsome
# assay_context: liver microsomes, read-out: Stability
observed_property: remaining at 10 min, 1 µM (%)

Examples with answers:
[[record]]
molecule_smiles = "COc1c(-c2ccc(C(F)(F)F)cc2Cl)ccc2nn([C@H](CC(C)C)c3ccc(C(=O)NCCC(=O)O)cc3)cc12"
data_value = 76

[[record]]
molecule_smiles = "CC(C)C[C@@H](c1ccc(C(=O)NCCC(=O)O)cc1)n1ncc2cc(-c3ccc(C(F)(F)F)cc3Cl)ccc21"
data_value = 107

[[record]]
molecule_smiles = "Cc1cc(C(F)(F)F)ccc1-c1cc2cn([C@@H](CC(C)C)c3ccc(C(=O)NCCC(=O)O)cc3)nc2cc1C"
data_value = 79

[[record]]
molecule_smiles = "COc1c(-c2ccc(C(F)(F)F)cc2Cl)ccc2nn([C@@H](CC(C)C)c3ccc(C(=O)NCCC(=O)O)cc3)cc12"
data_value = 82


(P) Cc1cc2c(cnn2[C@@H](CC(C)C)c2ccc(C(=O)NCCC(=O)O)cc2)cc1-c1ccc(C(F)(F)F)cc1Cl
(Q) Cc1cc(C(F)(F)F)ccc1-c1ccc2nn([C@@H](CC(C)C)c3ccc(C(=O)NCCC(=O)O)cc3)cc2c1C
Lookup: When their remaining at 10 min, 1 µM values are compared, which is larger, P or Q ? Give the chosen item's label as your response.
Found: P

---

# protocol_text: Half life in dog at 10 mg/kg, po
# Format: ADME, organism-based, Canis lupus familiaris
# assay_context: in vivo
observed_property: half-life (h)

Examples with answers:
[[record]]
molecule_smiles = "Cc1cc2c(cnn2[C@@H](CC(C)C)c2ccc(C(=O)NCCC(=O)O)cc2)cc1-c1ccc(C(F)(F)F)cc1Cl"
data_value = 18.9

[[record]]
molecule_smiles = "Cc1cc(C(F)(F)F)ccc1-c1cc2cnn([C@@H](CC(C)C)c3ccc(C(=O)NCCC(=O)O)cc3)c2cc1C"
data_value = 16.9


(P) Cc1cc(C(F)(F)F)ccc1-c1cc2cn([C@@H](CC(C)C)c3ccc(C(=O)NCCC(=O)O)cc3)nc2cc1C
(Q) Cc1c(-c2ccc(C(F)(F)F)cc2Cl)ccc2nn([C@@H](CC(C)C)c3ccc(C(=O)NCCC(=O)O)cc3)cc12
Lookup: When their half-life values are compared, which is larger, P or Q ? Give the chosen item's label as your response.
Found: P

---

# protocol_text: Antagonist activity at GCGR in dog hepatocytes assessed as inhibition of glucagon-induced cAMP by LANCE TR-FRET assay
# Assay type: cell-based, Canis lupus familiaris
observed_property: Ki (nM)

(A) Cc1cc(C(F)(F)F)ccc1-c1cc2cnn([C@@H](CC(C)C)c3ccc(C(=O)NCCC(=O)O)cc3)c2cc1C
(B) Cc1cc2c(cnn2[C@@H](CC(C)C)c2ccc(C(=O)NCCC(=O)O)cc2)cc1-c1ccc(C(F)(F)F)cc1Cl
(C) Cc1c(-c2ccc(C(F)(F)F)cc2Cl)ccc2nn([C@@H](CC(C)C)c3ccc(C(=O)NCCC(=O)O)cc3)cc12
(D) Cc1cc(C(F)(F)F)ccc1-c1cc2cn([C@@H](CC(C)C)c3ccc(C(=O)NCCC(=O)O)cc3)nc2cc1C
Lookup: Consider the compounds listed above. Rank them by Ki in ascending numerical order. Sort the labels as requested; that list is your answer.
Found: B, A, C, D
(B: 20 nM, A: 30 nM, C: 90 nM, D: 650 nM)

Reference source: ChEMBL document CHEMBL4396971
